Tested on: rat liver microsomes
Type: biochemical
Parameters: unit not given here
parameter: Detector Response, threshold dose
Number only, no unit.

- compound: "CCNc1nc(Cl)nc(NC(C)C)n1"
  Detector Response, threshold dose: 0.05
- compound: "Nc1c(Cl)c(Cl)nc(C(=O)O)c1Cl"
  Detector Response, threshold dose: 0.01
- compound: "CCOC(=O)CC(SP(=S)(OC)OC)C(=O)OCC (centres unmarked)"
  Detector Response, threshold dose: 0.1
- compound: "Cc1cccc(O)c1"
  Detector Response, threshold dose: 2
- compound: "COCCl"
  Detector Response, threshold dose: 0.1

Lookup: Give Detector Response, threshold dose (rat liver microsomes) of the following compound: C=CC(N)=O [Acrylamide]
Found: 0.2

Lookup: Lookup ClCCCl
Found: 20

Lookup: And what about the compound ClC=C(Cl)Cl ?
Found: 150

----------
Tested on: rat liver microsomes
Format: biochemical
Set-up: unit not given here
parameter: Detector Response, threshold dose
Enter a number only.

- molecule: "c1ccc2c(c1)cc1ccc3cccc4ccc2c1c34"
  Detector Response, threshold dose: 0.01
- molecule: "Oc1ccccc1"
  Detector Response, threshold dose: 0.02
- molecule: "CCOC(=O)c1ccc(O)cc1 [Ethyl p-Hydroxybenzoate]"
  Detector Response, threshold dose: 30

Next molecule, please.
Lookup: Suppose we examine the molecule C=O ; what Detector Response, threshold dose value has been reported?
Found: 0.01

----------
System: rat liver microsomes
Type: biochemical
Set-up: unit not given here
Binary call on Detector Response, threshold dose: yes from 7 upward, no beneath that.

Here's what some known entries look like.
- compound: "O=S1OCC2C(CO1)C1(Cl)C(Cl)=C(Cl)C2(Cl)C1(Cl)Cl (centres unmarked) [Endosulfan (ind.), Endosulfan]"
  category label: "no"
- compound: "CC(C)C(C(=O)OC(C#N)c1cccc(Oc2ccccc2)c1)c1ccc(Cl)cc1 (centres unmarked)"
  category label: "no"
- compound: "Oc1cccc(Cl)c1"
  category label: "no"
- compound: "O=N[O-].[Na+]"
  category label: "no"
- compound: "[Ca+2]"
  category label: "yes"

Now examine the next entry.
Lookup: Hi, just wondering whether Oc1cccc2cccnc12 [8-Hydroxyquinoline] shows Detector Response, threshold dose of 7 or higher.
Found: no

----------
System: rat liver microsomes
Format: biochemical
Parameters: unit not given here
Exam item: assign y to entries whose Detector Response, threshold dose is below 5 and n to entries at or above 5. Note that a value of exactly 5 receives n.

- molecule: "CC(C)=O [Acetone]"
  category label: "n"

Lookup: Hi there! Is Detector Response, threshold dose for Oc1ccc(Cl)cc1 [4-Chlorophenol] below 5, do you know?
Found: y

Lookup: Param item: Cc1cc(C(C)(C)C)c(O)c(C(C)(C)C)c1 [BHT]
Found: n

Lookup: Next: CCOP(=S)(OCC)Oc1nc(Cl)c(Cl)cc1Cl [Chlorpyrifos (ind.), Chlorpyrifos]
Found: y

Lookup: # repeat for C1COCCO1 [1,4-Dioxane]
Found: n

Lookup: Now consider N#CN [Cyanamid] .
Found: n

Lookup: Next entry: CC(C)[C@@H](C)/C=C/[C@@H](C)[C@H]1CC[C@H]2C3=CC=C4C[C@@H](O)CC[C@]4(C)[C@H]3CC[C@]12C [Ergosterol]
Found: y

Lookup: Please give the result for O=C(O)CNCP(=O)(O)O [Glyphosate (ind.), Glyphosate] too.
Found: y
